Molecular target: Prostaglandin G/H synthase 2 (Homo sapiens)
Assay: Inhibition of human recombinant COX-2 mediated formation of 12-HHT from arachidonic acid assessed as remaining activity at 10 uM after 5 mins by HPLC analysis
Attribute measured: Activity (%)

>>> result("CCCCC(Cc1ccc(OCCc2ccccc2)c(OCCc2ccccc2)c1)C(=O)O (centres undefined)")
86.4
>>> result("CCCC/C(=C\\c1cc(OCCc2ccccc2)ccc1OCCc1ccccc1)C(=O)O")
94.4
>>> result("CCCCC(Sc1cc(OCCc2ccccc2)cc(OCCc2ccccc2)c1)C(=O)O (centres undefined)")
110
>>> result("CCCCC(Cc1ccc(OCCc2ccccc2)cc1OCCc1ccccc1)C(=O)O (centres undefined)")
110
>>> result("CCCCC(Cc1cc(OCCc2ccccc2)ccc1OCCc1ccccc1)C(=O)O (centres undefined)")
66.5
>>> result("CCCCC(Cc1cc(OCCc2ccccc2)cc(OCCc2ccccc2)c1)C(=O)O (centres undefined)")
78.4
>>> result("CCCC/C(=C\\c1cc(OCc2ccc(C(F)(F)F)cc2)ccc1OCc1ccc(C(F)(F)F)cc1)C(=O)O")
102
>>> result("CCCC/C(=C\\c1cc(OCCc2ccc(C(F)(F)F)cc2)ccc1OCCc1ccc(C(F)(F)F)cc1)C(=O)O")
102
>>> result("CCCC/C(=C\\c1cc(OCCC2CCCCC2)ccc1OCc1ccc(C(F)(F)F)cc1)C(=O)O")
106

###

Biological target: Prostaglandin E synthase (Homo sapiens)
Sequence (O14684 whole entry): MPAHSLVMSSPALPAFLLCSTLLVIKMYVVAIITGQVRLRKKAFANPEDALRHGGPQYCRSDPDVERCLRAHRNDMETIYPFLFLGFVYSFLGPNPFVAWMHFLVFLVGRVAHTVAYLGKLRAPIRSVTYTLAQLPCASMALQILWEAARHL
Test: Inhibition of mPGES-1 in human IL-1beta-stimulated A549 cell microsomes assessed as reduction of PGE2 formation from PGH2 after 15 mins by RP-HPLC analysis
Records here are stratified by IC50; strata: low group: < 2 µM; middle group: ≥ 2 µM and < 4 µM; high group: ≥ 4 µM

>>> class_assignment("CCCCC(Sc1nc(OCc2ccccc2)cc(OCc2ccccc2)n1)C(=O)O (centres undefined)")
"middle group"
>>> class_assignment("CCCC/C(=C\\c1cc(OCCc2ccc(C(F)(F)F)cc2)ccc1OCCc1ccc(C(F)(F)F)cc1)C(=O)O")
"middle group"
>>> class_assignment("CCCC/C(=C\\c1cccc(OCCc2ccccc2)c1OCCc1ccccc1)C(=O)O")
"low group"
>>> class_assignment("CCCC/C(=C\\c1cc(OCCC2CCCCC2)ccc1OCCC1CCCCC1)C(=O)O")
"middle group"
>>> class_assignment("CCCCC(Sc1nc(OCCc2ccc(OC(F)(F)F)cc2)cc(OCCc2ccc(OC(F)(F)F)cc2)n1)C(=O)O (centres undefined)")
"high group"
>>> class_assignment("CCCCC(Sc1nc(OCCc2ccc(C(F)(F)F)cc2)cc(OCCc2ccc(C(F)(F)F)cc2)n1)C(=O)O (centres undefined)")
"low group"
>>> class_assignment("O=C(O)CSc1nc(OCCc2ccccc2)cc(OCCc2ccccc2)n1")
"high group"
>>> class_assignment("CCC(Sc1nc(OCCc2ccccc2)cc(OCCc2ccccc2)n1)C(=O)O (centres undefined)")
"high group"
>>> class_assignment("CCCCC(Cc1cc(OCCc2ccccc2)cc(OCCc2ccccc2)c1)C(=O)O (centres undefined)")
"middle group"
>>> class_assignment("CCCCC(Sc1nc(OCCC2CC2)cc(OCCC2CC2)n1)C(=O)O (centres undefined)")
"high group"
>>> class_assignment("CCCCC(Sc1nc(OCCc2ccc(C#N)cc2)cc(OCCc2ccc(C#N)cc2)n1)C(=O)O (centres undefined)")
"high group"
>>> class_assignment("CCCCC(Sc1nc(OCCc2ccc(C)cc2)cc(OCCc2ccc(C)cc2)n1)C(=O)O (centres undefined)")
"low group"
>>> class_assignment("CCCCC(Cc1ccc(OCCc2ccccc2)c(OCCc2ccccc2)c1)C(=O)O (centres undefined)")
"middle group"
>>> class_assignment("O=C(O)C(Sc1nc(OCCc2ccccc2)cc(OCCc2ccccc2)n1)c1ccccc1 (centres undefined)")
"low group"
>>> class_assignment("CCCCC(Sc1nc(OCCc2ccccc2)cc(OCCc2ccccc2)n1)C(=O)O (centres undefined)")
"low group"
>>> class_assignment("CCCCC(Sc1nc(OCCc2ccc([N+](=O)[O-])cc2)cc(OCCc2ccc([N+](=O)[O-])cc2)n1)C(=O)O (centres undefined)")
"middle group"
>>> class_assignment("CCCCC(Oc1cc(OCCc2ccccc2)cc(OCCc2ccccc2)c1)C(=O)O (centres undefined)")
"middle group"

###

Target: Polyunsaturated fatty acid 5-lipoxygenase (Homo sapiens)
Sequence (P09917 whole entry): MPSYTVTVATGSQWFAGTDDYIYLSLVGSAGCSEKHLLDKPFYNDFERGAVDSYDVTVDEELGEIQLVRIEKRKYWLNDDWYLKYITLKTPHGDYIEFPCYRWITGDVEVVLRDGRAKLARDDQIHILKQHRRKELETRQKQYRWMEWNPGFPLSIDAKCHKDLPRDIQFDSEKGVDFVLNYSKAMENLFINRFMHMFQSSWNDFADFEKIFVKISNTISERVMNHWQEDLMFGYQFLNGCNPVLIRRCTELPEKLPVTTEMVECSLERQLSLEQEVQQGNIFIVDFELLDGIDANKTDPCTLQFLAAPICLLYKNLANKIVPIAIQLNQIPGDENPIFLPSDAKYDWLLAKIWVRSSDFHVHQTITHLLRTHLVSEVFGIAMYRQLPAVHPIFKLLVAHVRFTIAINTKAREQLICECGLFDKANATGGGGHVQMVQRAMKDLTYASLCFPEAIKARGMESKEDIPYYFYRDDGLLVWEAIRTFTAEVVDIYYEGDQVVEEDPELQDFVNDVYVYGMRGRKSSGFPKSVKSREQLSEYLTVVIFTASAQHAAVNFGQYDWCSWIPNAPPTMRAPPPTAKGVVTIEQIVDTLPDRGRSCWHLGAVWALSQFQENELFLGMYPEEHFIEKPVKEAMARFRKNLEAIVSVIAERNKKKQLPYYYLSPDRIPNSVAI
Assay: Inhibition of 5-lipoxygenase-mediated 5(S)-H(p)ETE formation in A23187-stimulated human PMNL incubated 10 mins prior to A23187 challenge
pIC50: −log10 of the molar value.
Attribute measured: pIC50

>>> result("CCCC/C(=C\\c1cc(OCCc2ccc(C(F)(F)F)cc2)ccc1OCCc1ccc(C(F)(F)F)cc1)C(=O)O")
6.52
>>> result("CCCCC(Sc1nc(OCCC2CC2)cc(OCCC2CC2)n1)C(=O)O (stereo unspecified)")
5.92
>>> result("CCCCC(Sc1nc(OCCc2ccc([N+](=O)[O-])cc2)cc(OCCc2ccc([N+](=O)[O-])cc2)n1)C(=O)O (stereo unspecified)")
6.30
>>> result("CCCCC(Cc1ccc(OCCc2ccccc2)c(OCCc2ccccc2)c1)C(=O)O (stereo unspecified)")
5.22
>>> result("CCCCC(Sc1nc(OCCc2ccccc2)cc(OCCc2ccccc2)n1)C(=O)O (stereo unspecified)")
6.22
>>> result("CCCCC(Sc1nc(OCCc2ccc(OC)cc2)cc(OCCc2ccc(OC)cc2)n1)C(=O)O (stereo unspecified)")
6.52
>>> result("CCCCC(Sc1nc(OCCc2ccc(C(F)(F)F)cc2)cc(OCCc2ccc(C(F)(F)F)cc2)n1)C(=O)O (stereo unspecified)")
6.30
>>> result("O=C(O)CSc1nc(OCCc2ccccc2)cc(OCCc2ccccc2)n1")
5.12
>>> result("CCCCC(Sc1nc(OCCC2CCCCCC2)cc(OCCC2CCCCCC2)n1)C(=O)O (stereo unspecified)")
5.62
>>> result("CCCCC(Sc1nc(OCCC2CCCC2)cc(OCCC2CCCC2)n1)C(=O)O (stereo unspecified)")
5.40
>>> result("CCCCC(Sc1nc(OCCc2ccsc2)cc(OCCc2ccsc2)n1)C(=O)O (stereo unspecified)")
6.22

###

Biological target: Polyunsaturated fatty acid 5-lipoxygenase (Homo sapiens)
Experiment: Inhibition of 5-lipoxygenase in human PMNL S100 supernatant assessed as inhibition of enzyme product formation preincubated for 5 to 10 mins before arachidonic acid addition by HPLC analysis
Attribute measured: IC50

>>> result("CCCCCCC(Sc1nc(OCCc2ccccc2)cc(OCCc2ccccc2)n1)C(=O)O (stereo unspecified)")
"12.5 µM"

###

Experiment: Cytotoxicity in human polymorphonuclear leukocytes assessed as cell viability at 10 uM after 30 mins by MTT assay
Attribute measured: Activity

>>> result("CCCCC(Cc1cccc(OCCc2ccccc2)c1OCCc1ccccc1)C(=O)O (stereo not given)")
"Non-toxic"
>>> result("CCCC/C(=C\\c1cc(OCCC2CCCCC2)ccc1OCc1ccc(C(F)(F)F)cc1)C(=O)O")
"Non-toxic"
>>> result("CCCCC(Oc1cc(OCCc2ccccc2)cc(OCCc2ccccc2)c1)C(=O)O (stereo not given)")
"Non-toxic"
>>> result("CCCC/C(=C\\c1cccc(OCCc2ccccc2)c1OCCc1ccccc1)C(=O)O")
"Non-toxic"
>>> result("CCCCC(Cc1ccc(OCCc2ccccc2)c(OCCc2ccccc2)c1)C(=O)O (stereo not given)")
"Non-toxic"

###

Molecular target: Prostaglandin G/H synthase 2 (Homo sapiens) (UniProt P35354)
Sequence (P35354 whole entry, looked up): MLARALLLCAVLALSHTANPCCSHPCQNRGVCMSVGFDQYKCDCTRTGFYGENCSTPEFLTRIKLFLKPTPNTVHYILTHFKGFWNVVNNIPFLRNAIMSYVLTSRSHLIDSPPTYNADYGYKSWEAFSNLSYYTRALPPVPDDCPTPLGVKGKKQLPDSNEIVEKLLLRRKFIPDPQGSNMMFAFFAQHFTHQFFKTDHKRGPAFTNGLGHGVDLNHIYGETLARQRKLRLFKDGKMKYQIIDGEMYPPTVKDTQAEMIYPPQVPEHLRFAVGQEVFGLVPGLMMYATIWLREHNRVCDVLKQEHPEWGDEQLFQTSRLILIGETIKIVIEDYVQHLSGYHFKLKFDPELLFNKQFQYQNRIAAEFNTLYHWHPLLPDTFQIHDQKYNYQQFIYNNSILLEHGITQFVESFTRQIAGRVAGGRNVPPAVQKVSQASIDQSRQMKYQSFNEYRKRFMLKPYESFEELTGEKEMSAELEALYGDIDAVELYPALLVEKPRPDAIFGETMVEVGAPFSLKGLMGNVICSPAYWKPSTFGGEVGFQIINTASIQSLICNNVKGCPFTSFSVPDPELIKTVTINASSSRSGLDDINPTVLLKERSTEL
Assay: Inhibition of human recombinant COX-2 mediated formation of 12-HHT from arachidonic acid assessed as remaining activity at 10 uM after 5 mins by HPLC analysis
Attribute measured: Activity (%)

>>> result("CCCCC(Cc1cccc(OCCc2ccccc2)c1OCCc1ccccc1)C(=O)O (stereo not given)")
89.6
>>> result("CCCCC(Oc1cc(OCCc2ccccc2)cc(OCCc2ccccc2)c1)C(=O)O (stereo not given)")
92.5
>>> result("CCCC/C(=C\\c1cc(OCCC2CCCCC2)ccc1OCCC1CCCCC1)C(=O)O")
123
>>> result("CCCC/C(=C\\c1cccc(OCCc2ccccc2)c1OCCc1ccccc1)C(=O)O")
113
>>> result("CCCC/C(=C\\c1cc(OCCc2ccccc2)cc(OCCc2ccccc2)c1)C(=O)O")
81.4

The origin of these recorded values is ChEMBL document CHEMBL2169781.
